Values were extracted from PubChem BioAssay AID1508612.

protocol-text: passive permeability, PAMPA, ADME assay (AID 1508612)
condition-set: pH 7.4, 30.0 min, 50.0 µM
Reported Papp values are given for each entry in this list.
endpoint-label: Papp

| molecule | endpoint-label | result |
| --- | --- | --- |
| Cc1ccc(NC(=O)c2cc(-c3ccc(C)o3)nc3ccccc23)nc1 | Papp | > 1000 ×10⁻⁶ cm/s |
| CN(C)CCOc1ccc(C(=C(CCCl)c2ccccc2)c2ccccc2)cc1 | Papp | < 1 ×10⁻⁶ cm/s |
| CN(C)c1cc(-c2nc(Nc3ccc(F)c(F)c3)c3ccccc3n2)ccn1 | Papp | > 1000 ×10⁻⁶ cm/s |
| O=C(c1cnc(N2CCCCC2)c2ccccc12)N1CCN(c2ccc(Cl)cc2)CC1 | Papp | > 1000 ×10⁻⁶ cm/s |

###

protocol-text: passive permeability, PAMPA, ADME assay (AID 1508612)
condition-set: pH 7.4, 30.0 min, 50.0 µM

| molecule | Papp |
| --- | --- |
| Cc1cc(C)c(CNC(=O)c2nc(-c3cccc(CO)c3)cc3c2ccn3C)c(=O)[nH]1 | > 1000 ×10⁻⁶ cm/s |
| COc1ccc(NC(=O)c2ccc[nH]2)cc1S(=O)(=O)Nc1ccc(Br)cc1 | > 1000 ×10⁻⁶ cm/s |
| C=C1C(=O)O[C@@H]2[C@H]3O[C@]3(C)CC/C=C(\C)CC[C@@H]12 | > 1000 ×10⁻⁶ cm/s |

###

protocol-text: passive permeability, PAMPA, ADME assay (AID 1508612)
condition-set: pH 7.4, 30.0 min, 50.0 µM
Reported Papp values are given for each entry in this list.
endpoint-label: Papp (×10⁻⁶ cm/s)

| molecule | endpoint-label | bound-operator | readout-number |
| --- | --- | --- | --- |
| CCN(CC)CCNC(=O)C1CCN(c2nn3cc(-c4ccc(F)cc4)nc3s2)CC1 | Papp | > | 1000 |
| CN(C)c1ccccc1-c1csc(N2CCC(C(N)=O)CC2)n1 | Papp | = | 331 |
| NC(=O)C1CCN(c2nnc(-c3ccc(Br)cc3)s2)CC1 | Papp | = | 525 |
| CC(=O)NCc1ccc(-c2csc(Nc3cccc(C)c3)n2)o1 | Papp | > | 1000 |
| CCOC(=O)c1nnc(N[S+](=O)([O-])c2ccc(NC(=O)Cc3ccc(Cl)c(Cl)c3)cc2)s1 | Papp | = | 1.1 |
| NC1(c2ccc(NC(=O)c3ccnc(-c4cc(C(=O)O)ccn4)c3)cc2)CC1 | Papp | = | 8.31 |

###

Reported Papp values are given for each entry in this list.
protocol-text: passive permeability, PAMPA, ADME assay (AID 1508612)
condition-set: pH 7.4, 30.0 min, 50.0 µM
endpoint-label: Papp (×10⁻⁶ cm/s)

| compound | bound-operator | readout-number |
| --- | --- | --- |
| Nc1nc2c(s1)C(c1ccccc1)CC(=O)N2 (stereo not drawn) | = | 19.3 |
| COc1ccc(C(=O)Nc2nc(-c3ccccc3)cs2)c(OC)c1 | > | 1000 |
| Clc1ccc(-c2noc3ncnc(N4CCCCC4)c23)cc1 | > | 1000 |
| CC(=O)c1c(C)c(C(=O)Nc2cccc([S+](=O)([O-])N(C)C)c2)n(C)c1C | = | 295 |
| Cc1onc(-c2ccccc2)c1C(=O)Nc1nnc(COc2ccc(Cl)cc2)s1 | = | 247 |
| CCc1cccc(CC)c1-n1c(C=C(C)C)c(C(=O)N2CCNCC2)cc(-c2nc(-c3ccc(C(F)(F)F)cc3)cs2)c1=O | = | 33.8 |
| O=C(Nc1nc(-c2ccccc2)cs1)c1ccncc1NS(=O)(=O)c1cccc(Cl)c1 | = | 754 |
| Cc1ccnc(NC(=S)N2CCN(c3ccccc3C(F)(F)F)CC2)c1 | = | 726 |

###

protocol-text: passive permeability, PAMPA, ADME assay (AID 1508612)
condition-set: pH 7.4, 30.0 min, 50.0 µM
Reported Papp values are given for each entry in this list.
endpoint-label: Papp

| compound | endpoint-label | result |
| --- | --- | --- |
| Fc1cc(Nc2nc(-c3ccncc3)nc3ccccc23)ccc1N1CCCCC1 | Papp | > 1000 ×10⁻⁶ cm/s |
| COc1ccc(CNc2ccc(S(=O)(=O)Nc3nccs3)cc2)c(O)c1 | Papp | < 1 ×10⁻⁶ cm/s |
| NC(=O)C1CCN(c2nc(-c3ccc(OCc4ccccc4)cc3)cs2)CC1 | Papp | < 1 ×10⁻⁶ cm/s |
| CCN(CCN(C)C)C(=O)C1CCN(S(=O)(=O)c2c(C)noc2/C=C/c2ccccc2F)CC1 | Papp | > 1000 ×10⁻⁶ cm/s |
| CSc1ccccc1N1CCN(CCCCCC(=O)NC2CCCc3ccccc32)CC1 (stereo unspecified) | Papp | > 1000 ×10⁻⁶ cm/s |
| COc1ccc(-c2cc(-c3cccc4[nH]ncc34)cn3cncc23)cn1 | Papp | < 1 ×10⁻⁶ cm/s |
| CC(C)CCNC(=O)[C@H](CC(C)C)NC(=O)[C@H]1O[C@@H]1C(=O)O | Papp | < 1 ×10⁻⁶ cm/s |
| CCOC(=O)c1[nH]c(C)c(CCC(=O)N2CCN(c3cc(Cl)ccc3C)CC2)c1C | Papp | > 1000 ×10⁻⁶ cm/s |
| Cc1cc(C)nc(NC(=S)N2CCN(c3ccc(Cl)cc3[N+](=O)[O-])CC2)c1 | Papp | > 1000 ×10⁻⁶ cm/s |
| Nc1ccc(CNc2ccc([S+](=O)([O-])Nc3nccs3)cc2)c(O)c1 | Papp | < 1 ×10⁻⁶ cm/s |
| Cc1cc(C)nc(NC(=S)N2CCN(c3ccc(Cl)cc3F)CC2)c1 | Papp | > 1000 ×10⁻⁶ cm/s |

###

protocol-text: passive permeability, PAMPA, ADME assay (AID 1508612)
condition-set: pH 7.4, 30.0 min, 50.0 µM
Reported Papp values are given for each entry in this list.
endpoint-label: Papp (×10⁻⁶ cm/s)

| molecule | endpoint-label | units-of-measure | readout-number |
| --- | --- | --- | --- |
| COc1ccc(NC(=O)c2cccnc2C)cc1S(=O)(=O)Nc1ccc(Br)cc1 | Papp | ×10⁻⁶ cm/s | 522 |
| CN(C)c1cccc(-c2ncnc(N3CCC(C(N)=O)CC3)n2)c1 | Papp | ×10⁻⁶ cm/s | 244 |
| CN(Cc1cnc2nc(N)nc(N)c2n1)c1ccc(C(=O)N[C@@H](CCC(=O)O)C(=O)O)cc1 | Papp | ×10⁻⁶ cm/s | 5.39 |

###

protocol-text: passive permeability, PAMPA, ADME assay (AID 1508612)
condition-set: pH 7.4, 30.0 min, 50.0 µM
Reported Papp values are given for each entry in this list.

| molecule | Papp |
| --- | --- |
| Cc1cc(N2CCN(c3ccccc3)CC2)nc(-n2nc(C)cc2C)n1 | > 1000 ×10⁻⁶ cm/s |
| Cc1cnc(-c2ccccc2C(C)(C)C)nc1NCc1ccc(-n2ccnn2)cc1 | > 1000 ×10⁻⁶ cm/s |
| Nc1c(S(=O)(=O)c2cccs2)c2nc3ccccc3nc2n1Cc1ccccc1 | > 1000 ×10⁻⁶ cm/s |
| CCOc1ccc(CCNC(=O)c2cc3sccc3n2Cc2ccccc2)c(F)c1OCC | < 1 ×10⁻⁶ cm/s |

###

Reported Papp values are given for each entry in this list.
protocol-text: passive permeability, PAMPA, ADME assay (AID 1508612)
condition-set: pH 7.4, 30.0 min, 50.0 µM

| molecule | Papp |
| --- | --- |
| Clc1cccc(-c2ccc(-c3nnc(CCCc4ccc5cccnc5n4)o3)cc2)c1 | > 1000 ×10⁻⁶ cm/s |
| Cc1cnc(-c2ccccc2OC(C)C)nc1NCc1ccc(-n2ccnn2)cc1 | > 1000 ×10⁻⁶ cm/s |
| CNc1oc(-c2cccc3ccccc23)nc1C(=O)OC | > 1000 ×10⁻⁶ cm/s |

###

protocol-text: passive permeability, PAMPA, ADME assay (AID 1508612)
condition-set: pH 7.4, 30.0 min, 50.0 µM

| compound | Papp |
| --- | --- |
| Cc1ccc(S(=O)(=O)Nc2ccccc2C(=O)Nc2nc(-c3ccccc3)cs2)cc1 | > 1000 ×10⁻⁶ cm/s |
| Fc1cccc(CN2CCNc3cc(Nc4ccccc4)ncc3C2)c1 | < 1 ×10⁻⁶ cm/s |
| Oc1ccc2[nH]cc(CCCCN3CC=C(c4ccccc4)CC3)c2c1 | > 1000 ×10⁻⁶ cm/s |
| COc1ccccc1N1CCN(C2CCCCC2NS(=O)(=O)c2ccccc2)CC1 (centres undefined) | > 1000 ×10⁻⁶ cm/s |

###

protocol-text: passive permeability, PAMPA, ADME assay (AID 1508612)
condition-set: pH 7.4, 30.0 min, 50.0 µM
endpoint-label: Papp

| compound | result |
| --- | --- |
| CCC(CC)c1cc([C@H]2CN3CC[C@H]2C[C@@H]3CNS(=O)(=O)c2cccs2)nc(-c2ccncc2)n1 | > 1000 ×10⁻⁶ cm/s |
| CC(C)(C)c1cc(NC(=O)Nc2ccc(-c3cn4c(n3)sc3cc(OCCN5CCOCC5)ccc34)cc2)no1 | < 1 ×10⁻⁶ cm/s |
| c1c[nH]c(C2CCN(c3ncc(-c4ccc5c(c4)OCCCO5)s3)CC2)n1 | > 1000 ×10⁻⁶ cm/s |
| COC(=O)CNC(=O)c1nc(-c2ccc(F)cc2)c2ccccn12 | > 1000 ×10⁻⁶ cm/s |
| CCOc1ccc(CCNC(=O)c2cc3ccccc3o2)cc1OCC | > 1000 ×10⁻⁶ cm/s |
| OC1(c2ccc(Cl)cc2)CCN(Cc2c[nH]c3ccccc23)CC1 | > 1000 ×10⁻⁶ cm/s |
| CC1(C)CC(=O)C2=C(C1)NC(Nc1nc3ccccc3o1)=NC2c1ccccc1Cl (stereo not given) | > 1000 ×10⁻⁶ cm/s |
| COc1ccc(-n2c(C)c(C(C)=O)c3ccccc32)cc1 | > 1000 ×10⁻⁶ cm/s |
| Cc1ccc(-c2cc(C(=O)Nc3ccc(S(=O)(=O)N(C)Cc4nccs4)cc3)c3ccccc3n2)cc1C | < 1 ×10⁻⁶ cm/s |
| NCC(=O)Nc1cncc(-c2nn3c(=O)cc(N4CCNCC4)nc3s2)c1 | < 1 ×10⁻⁶ cm/s |
